- ASSAY TARGET: EP2 receptor (Homo sapiens, UniProt P43116)
- Construct: SF295 glioblastoma cells express high endogenous EP2 and no EP4
- TEST METHOD NOTES: hEP2 cAMP assay (SF295 glioblastoma cells, HTRF cAMP, PGE2 stimulation)
- PARTICULARS: antagonistic activity
pIC50: −log10 of the molar value.

{"columns": ["COMPOUND", "pIC50"],
 "data": [
  ["Cc1sc2c(C)ccc(F)c2c1CCNc1cc(-c2cc(F)c(C(=O)O)c(OC3CCC3)c2)ncn1 [Example 148]", 6.96],
  ["CCOc1cc(-c2cc(NCCc3c(C#N)sc4c(OC)cccc34)ncn2)ccc1CC(=O)O [Example 164]", 6.46],
  ["Cc1sc2c(C)cccc2c1CCNc1cc(-c2ccc3oc(C(=O)O)cc3c2)ncn1 [Example 78]", 8.15],
  ["CCOc1cc(-c2cc(NCCc3c(C)sc4c(C)cc(F)cc34)ncn2)sc1C(=O)NS(C)(=O)=O [Example 157]", 7.74],
  ["Cc1sc2c(Cl)ccc(Cl)c2c1CCNc1cc(-c2ccc(C(=O)O)c(O)c2)ncn1 [Example 11]", 7.15],
  ["COc1cccc2c(CCNc3cc(-c4ccc(C(=O)O)c(SC)c4)ncn3)c(C#N)sc12 [Example 13]", 7.49],
  ["CCOc1cc(-c2cc(NCCc3c(C)sc4c(C)cc(F)cc34)ncn2)sc1C(=O)NS(N)(=O)=O [Example 156]", 8.00],
  ["CCCc1cc(-c2cc(NCCc3c(C)sc4c(C)cc(F)cc34)ncn2)ccc1CC(=O)O [Example 186]", 6.51],
  ["COc1cc(Cl)cc2c(CCNc3cc(-c4cc(F)c(C(=O)O)c(OC5CCC5)c4)ncn3)c(C)oc12 [Example 151]", 7.02],
  ["CCOc1cc(-c2cc(NCCc3c(C#N)sc4c(C)cc(F)cc34)ncn2)sc1C(=O)O [Example 26]", 9.00],
  ["CCOc1cc(-c2cc(NCCc3c(C)oc4c(OC)cc(Cl)cc34)ncn2)ccc1CC(=O)O [Example 106]", 6.40],
  ["Cc1sc2c(C)cccc2c1CCNc1cc(-c2ccc3c(C(=O)O)coc3c2)ncn1 [Example 76]", 7.41],
  ["Cc1sc2c(C)cc(F)cc2c1CCNc1cc(-c2ccc(C(=O)O)c(OC3CCC3)c2)ncn1 [Example 138]", 7.12],
  ["CCOc1cc(-c2cc(NCCc3c(C)sc4c(C)cc(F)cc34)ncn2)sc1-c1noc(=O)[nH]1 [Example 159]", 7.96],
  ["CCOc1cc(-c2cc(NCCc3c(C#N)sc4c(OC)cccc34)ncn2)sc1C(=O)O [Example 27]", 7.96],
  ["CSc1cc(-c2cc(NCCc3c(C)sc4c(C)cccc34)ncn2)cc(Cl)c1C(=O)O [Example 50]", 7.89]
]}

* * *

- ASSAY TARGET: PTGER2 (EP2) (Homo sapiens)
- Sequence (P43116 whole entry): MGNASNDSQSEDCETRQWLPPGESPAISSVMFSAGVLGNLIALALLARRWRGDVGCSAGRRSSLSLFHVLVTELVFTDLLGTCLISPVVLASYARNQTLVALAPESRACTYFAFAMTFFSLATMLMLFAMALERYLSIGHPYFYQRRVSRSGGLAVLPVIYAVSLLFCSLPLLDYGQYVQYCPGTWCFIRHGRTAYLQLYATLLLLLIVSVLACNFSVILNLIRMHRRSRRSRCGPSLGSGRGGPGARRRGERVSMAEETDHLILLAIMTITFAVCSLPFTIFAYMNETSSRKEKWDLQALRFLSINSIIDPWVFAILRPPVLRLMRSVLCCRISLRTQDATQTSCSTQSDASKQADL
- TEST METHOD NOTES: hEP2 b-arrestin assay (PathHunter HEK 293 PTGER2 b-arrestin cells)
- PARTICULARS: antagonistic activity, beta-arrestin assay; read-out: hEP2 b-arr IC50
Recorded IC50 by entry
ENDPOINT: IC50 (nM)

{"columns": ["COMPOUND STRUCTURE STRING", "ASSAY TARGET", "ENDPOINT", "REPORTED VALUE"],
 "data": [
  ["Cc1oc2c(C)cc(F)cc2c1CCNc1cc(-c2ccc(C(=O)O)c(OC3CCC3)c2)ncn1", "PTGER2 (EP2) (Homo sapiens)", "IC50", 37],
  ["CCOc1cc(-c2cc(NCCc3c(C)sc4c(C)cc(F)cc34)ncn2)ccc1C(=O)NC", "PTGER2 (EP2) (Homo sapiens)", "IC50", 11],
  ["Cc1cc(-c2cc(NCCc3c(C)sc4c(C)cccc34)ncn2)sc1C(=O)O", "PTGER2 (EP2) (Homo sapiens)", "IC50", 18],
  ["Cc1sc2ccccc2c1CCNc1cc(-c2ccc(C(=O)O)c(SC(C)C)c2)ncn1", "PTGER2 (EP2) (Homo sapiens)", "IC50", 20],
  ["CCOc1cc(-c2cc(NCCc3c(Cl)sc4c(C)cc(F)cc34)ncn2)ccc1C(=O)O", "PTGER2 (EP2) (Homo sapiens)", "IC50", 15],
  ["CCOc1cc(-c2cc(NCCc3c(C)sc4c(OC)ccc(Cl)c34)ncn2)ccc1C(=O)O", "PTGER2 (EP2) (Homo sapiens)", "IC50", 17],
  ["Cc1sc2c(C)cc(F)cc2c1CCNc1cc(-c2ccc(-c3nc(=O)[nH]o3)cc2)ncn1", "PTGER2 (EP2) (Homo sapiens)", "IC50", 26],
  ["Cc1sc2c(C)cc(F)cc2c1CCNc1cc(-c2ccc(-c3c(O)c(=O)c3=O)cc2)ncn1", "PTGER2 (EP2) (Homo sapiens)", "IC50", 20],
  ["CCOc1cc(-c2cc(NCCc3c(C)sc4c(C)ccc(F)c34)ncn2)cc(C)c1C(=O)O", "PTGER2 (EP2) (Homo sapiens)", "IC50", 79],
  ["Cc1cc(-c2cc(NCCc3c(C)oc4ccccc34)ncn2)sc1C(=O)O", "PTGER2 (EP2) (Homo sapiens)", "IC50", 5],
  ["CCc1nc(-c2cc(NCCc3c(C)sc4c(C)cc(F)cc34)ncn2)sc1-c1noc(=O)[nH]1", "PTGER2 (EP2) (Homo sapiens)", "IC50", 26],
  ["Cc1sc2c(C)cc(F)cc2c1CCNc1cc(-c2ccc(C(=O)O)c(OCC(C)C)c2)ncn1", "PTGER2 (EP2) (Homo sapiens)", "IC50", 7],
  ["CCOc1cc(-c2cc(NCCc3csc4ccccc34)ncn2)sc1C(=O)O", "PTGER2 (EP2) (Homo sapiens)", "IC50", 19],
  ["CCOc1cc(-c2cc(NCCc3c(C)sc4c(C)cc(F)cc34)ncn2)ccc1NC(=O)C(=O)O", "PTGER2 (EP2) (Homo sapiens)", "IC50", 13],
  ["CCOc1cc(-c2cc(NCCc3c(C)oc4c(OC)cc(Cl)cc34)ncn2)sc1C(=O)O", "PTGER2 (EP2) (Homo sapiens)", "IC50", 9],
  ["CCCc1cc(-c2cc(NCCc3c(C)sc4c(C)cc(F)cc34)ncn2)cc(F)c1C(=O)O", "PTGER2 (EP2) (Homo sapiens)", "IC50", 36]
]}

* * *

The following molecules are listed with their measured pIC50 values.
- ASSAY TARGET: PTGER2 (EP2) (Homo sapiens)
- TEST METHOD NOTES: hEP2 b-arrestin assay (PathHunter HEK 293 PTGER2 b-arrestin cells)
- PARTICULARS: antagonistic activity, beta-arrestin assay; read-out: hEP2 b-arr IC50
pIC50: −log10 of the molar value.
ENDPOINT: pIC50

{"columns": ["MOLECULE", "REPORTED VALUE"],
 "data": [
  ["CSc1cc(-c2cc(NCCc3c(C)oc4c(C)cc(F)cc34)ncn2)ccc1C(=O)O [Example 16]", 7.89],
  ["Cc1sc2c(C)ccc(F)c2c1CCNc1cc(-c2cc(F)c(C(=O)O)c(OC3CCC3)c2)ncn1 [Example 148]", 7.52],
  ["CCSc1cc(-c2cc(NCCc3c(C)sc4c(C)cccc34)ncn2)ccc1C(=O)O [Example 42]", 8.40],
  ["CCn1cc(-c2cc(NCCc3c(C)sc4c(C)cc(F)cc34)ncn2)cc1C(=O)O [Example 200]", 7.20],
  ["CSc1cc(-c2cc(NCCc3c(C)oc4ccccc34)ncn2)ccc1C(=O)O [Example 18]", 9.00],
  ["CCOc1nc(-c2cc(NCCc3c(C)sc4c(C)cc(F)cc34)ncn2)sc1C(=O)O [Example 160]", 7.82],
  ["CCOc1cc(-c2cc(NCCc3c(C#N)sc4c(C)cc(F)cc34)ncn2)cc(F)c1CC(=O)O [Example 165]", 7.55],
  ["CCCOc1cc(-c2cc(NCCc3c(C)sc4c(OC)ccc(Cl)c34)ncn2)ccc1C(=O)O [Example 101]", 7.66],
  ["CCSc1cc(-c2cc(NCCc3c(C)sc4ccccc34)ncn2)ccc1C(=O)O [Example 43]", 8.52]
]}

* * *

Entries and their measured pIC50 follow.
- ASSAY TARGET: EP4 receptor (Homo sapiens)
- Construct: BT549 breast cancer cells, express high endogenous EP4 levels and very low EP2 levels
- Sequence (P35408 whole entry): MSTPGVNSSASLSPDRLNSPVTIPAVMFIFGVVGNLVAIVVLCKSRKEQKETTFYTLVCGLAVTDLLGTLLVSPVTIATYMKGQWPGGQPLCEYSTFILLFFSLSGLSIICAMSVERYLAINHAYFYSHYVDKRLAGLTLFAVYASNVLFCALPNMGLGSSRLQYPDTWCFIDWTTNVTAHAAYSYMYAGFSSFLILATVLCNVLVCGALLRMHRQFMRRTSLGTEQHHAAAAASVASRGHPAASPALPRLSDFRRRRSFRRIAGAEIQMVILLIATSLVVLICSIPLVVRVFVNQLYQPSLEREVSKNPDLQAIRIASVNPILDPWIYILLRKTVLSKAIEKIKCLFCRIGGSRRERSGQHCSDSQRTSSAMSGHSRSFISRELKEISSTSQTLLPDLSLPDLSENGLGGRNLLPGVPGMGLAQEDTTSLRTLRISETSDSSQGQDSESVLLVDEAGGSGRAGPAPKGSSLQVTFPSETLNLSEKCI
- TEST METHOD NOTES: hEP4 cAMP assay (BT549 breast cancer cells, HTRF cAMP, PGE2 stimulation)
- PARTICULARS: antagonistic activity, PGE2 6 nM (EC80)
pIC50: −log10 of the molar value.

{"columns": ["COMPOUND", "pIC50"],
 "data": [
  ["CCOc1cc(-c2cc(NCCc3c(C)sc4c(OC)ccc(Cl)c34)ncn2)sc1C(=O)O [Example 30]", 7.96],
  ["CCOc1cc(-c2cc(NCCc3c(C)sc4c(C)cc(F)cc34)ncn2)sc1C(=O)NS(C)(=O)=O [Example 157]", 7.16],
  ["CCOc1cc(-c2cc(NCCc3csc4ccccc34)ncn2)ccc1OCC(=O)O [Example 125]", 6.37],
  ["CSc1cc(-c2cc(NCCc3c(C)sc4c(C)ccc(Cl)c34)ncn2)ccc1C(=O)O [Example 19]", 6.33],
  ["CCc1oc2c(C)cc(F)cc2c1CCNc1cc(-c2ccc(C(=O)O)c(SC)c2)ncn1 [Example 22]", 6.18],
  ["CCOc1cc(-c2cc(NCCc3c(C)sc4c(C)c(F)ccc34)ncn2)ccc1OCC(=O)O [Example 119]", 6.96],
  ["CCOc1cc(-c2cc(NCCc3c(C)sc4c(C)cccc34)ncn2)ccc1CC(=O)O [Example 109]", 6.54],
  ["CCOc1cc(-c2cc(NCCc3c(C)sc4c(C)cc(F)cc34)ncn2)ccc1-c1nnn[nH]1 [Example 142]", 6.98],
  ["CCCc1cc(-c2cc(NCCc3c(C#N)sc4c(C)cc(F)cc34)ncn2)ccc1C(=O)O [Example 167]", 7.54],
  ["CSc1cc(-c2cc(NCCc3c(C)oc4c(C)cc(F)cc34)ncn2)ccc1C(=O)O [Example 16]", 6.72],
  ["COc1ccc(F)c2c(CCNc3cc(-c4ccc(C(=O)O)c(OC5CCC5)c4)ncn3)c(C)oc12 [Example 139]", 6.32],
  ["Cc1oc2c(C)cc(F)cc2c1CCNc1cc(-c2ccc(C(=O)O)c(OC3CCCC3)c2)ncn1 [Example 154]", 6.05],
  ["COc1ccc(Cl)c2c(CCNc3cc(-c4ccc(C(=O)O)c(OC(C)C)c4)ncn3)c(C)sc12 [Example 98]", 6.67],
  ["CCOc1nc(-c2cc(NCCc3c(C)sc4c(C)cc(F)cc34)ncn2)sc1C(=O)O [Example 160]", 7.74],
  ["CCOc1cc(-c2cc(NCCc3c(C)sc4ccccc34)ncn2)ccc1C(=O)O [Example 72]", 5.80],
  ["CCOc1cc(-c2cc(NCCc3c(C)sc4c(C)cccc34)ncn2)ccc1C(=O)O [Example 60]", 6.46],
  ["Cc1sc2c(C)cc(F)cc2c1CCNc1cc(-c2ccc(CC(=O)O)c(CC(C)C)c2)ncn1 [Example 182]", 6.42],
  ["CCOc1cc(-c2cc(NCCc3c(C)sc4c(C)cc(F)cc34)ncn2)sc1CC(=O)O [Example 52]", 6.64],
  ["CCOc1cc(-c2cc(NCCc3c(C)oc4c(OC)cc(Cl)cc34)ncn2)ccc1OCC(=O)O [Example 121]", 6.89],
  ["CCOc1cc(-c2cc(NCCc3c(C)sc4c(OC)ccc(F)c34)ncn2)sc1C(=O)O [Example 28]", 8.30],
  ["Cc1cc(F)cc2c(CCNc3cc(-c4ccc(CC(=O)O)c(OC(C)C)c4)ncn3)c(C#N)sc12 [Example 171]", 7.38],
  ["CCOc1cc(-c2cc(NCCc3c(C)sc4c(C)c(F)ccc34)ncn2)ccc1CC(=O)O [Example 112]", 6.35],
  ["CCCc1cc(-c2cc(NCCc3c(C)sc4c(C)cc(F)cc34)ncn2)ccc1CC(=O)O [Example 186]", 6.60],
  ["Cc1sc2c(C)cccc2c1CCNc1cc(-c2ccc3oc(C(=O)O)cc3c2)ncn1 [Example 78]", 7.06],
  ["CCOc1cc(-c2cc(NCCc3c(C#N)sc4c(OC)cccc34)ncn2)ccc1CC(=O)O [Example 164]", 7.77],
  ["CCc1oc2c(C)cc(F)cc2c1CCNc1cc(-c2cc(C)c(C(=O)O)s2)ncn1 [Example 7]", 6.20],
  ["Cc1sc2c(C)cc(F)cc2c1CCNc1cc(-c2ccc(C(=O)O)c(CC(C)C)c2)ncn1 [Example 94]", 6.52]
]}
